test: protein stability index of a GFP-peptide fusion (yeast GPS) (PSI 1-4); higher = more stable; sorted into four equal gates, so the index is relative within each strain; conditions: ubr1∆
Kindly state protein stability index for each of the entries shown.
Numbers only.

Consider the worked cases shown below.
primary_sequence="KEEFRLMISPKDEETTE [RRI2]" test_result=1.5
primary_sequence="LLWLVLIHPENFTCNRK [SWI1]" test_result=2.96
primary_sequence="PLPLDLNVQVWHIEETG [ITC1]" test_result=2.17
primary_sequence="AWGALITTFVKRSTVPL [YML103C/NUP188]" test_result=2.33
primary_sequence="EMTLPTSPLYMDPGAPL [SSN2]" test_result=2.81

Value sought for every listed sequence: protein stability index.
1. ADVSIKSILQEIRRSLS [POP5]
2. GGPWFTDGELDIEFINS [RPC34]
3. EEYKQLVKDRKFLREVF [RPO21]
4. KGIAKEHAKWGPAAAIE [RPB3]
5. LIITRKAFKNNSSKYYI [SMC4]
6. AIPLLKVLRKFRVQSQS [NUT1]
7. HNSHLSLNYKFTTNKSK [SRP21]

[1.32, 3.17, 2.98, 2.9, 2.69, 2.5, 2.41]
